Test: Phase 1b plasma pharmacokinetics of ARRY-382 and metabolites
Assay type: in vivo, human
Conditions: human, plasma, oral, 200 mg, Tmax, median (range), Cycle 1 day 1; Phase 1b; ARRY-382 200 mg; n = 6
Endpoint name: Tmax (h)
Write the number in h without appending the unit.

Query: Indicate its recorded Tmax; the molecule in question is Cc1cccc(Cn2nc(C3CC3)c3c(NC(=O)c4cnc5cc(OCCN6CCN(C)CC6)ccn45)cccc32)n1
Response: 2

----------
Experiment: Phase 2 plasma pharmacokinetics of ARRY-382 and metabolites
Assay type: in vivo, human
Conditions: human, plasma, oral, 300 mg, Cmax, geometric mean (geometric %CV), Cycle 1 day 1, PDA, n = 26
Endpoint name: Cmax (ng/mL)
Hi! Could you send only the number? It should be in ng/mL, unit omitted.

Query: Find the measured Cmax of Cc1cccc(Cn2nc(C3CC3)c3c(NC(=O)c4cnc5cc(OCCN6CCN(C)CC6)ccn45)cccc32)n1 and report it.
Response: 1290

----------
Experiment: Phase 2 plasma pharmacokinetics of ARRY-382 and metabolites
Assay type: in vivo, human
Conditions: human, plasma, oral, 300 mg, Cmax, geometric mean (geometric %CV), Cycle 2 day 1, PD-1/PD-L1 IR, n = 6
Endpoint name: Cmax (ng/mL)
Give your result in ng/mL as a bare value.

Query: Give me measured Cmax, please, for this compound: Cc1cccc(Cn2nc(C3CC3)c3c(NC(=O)c4cnc5cc(OCCN6CCN(C)CC6)ccn45)cccc32)n1
Response: 2130

----------
Assay: Phase 1b plasma pharmacokinetics of ARRY-382 and metabolites
Type: in vivo, human
Conditions: human, plasma, oral, 400 mg, Tmax, median (range), Cycle 1 day 1; Phase 1b; ARRY-382 400 mg; n = 7
Endpoint name: Tmax (h)
State just the number; it will be interpreted in h.

Query: Give Tmax for the following compound: Cc1cccc(Cn2nc(C3CC3)c3c(NC(=O)c4cnc5cc(OCCN6CCN(C)CC6)ccn45)cccc32)n1
Response: 4.07

----------
Experiment: Phase 2 plasma pharmacokinetics of ARRY-382 and metabolites
Type: in vivo, human
Conditions: human, plasma, oral, 300 mg, Cmax, geometric mean (geometric %CV), Cycle 1 day 1, PD-1/PD-L1 IR, n = 18
Endpoint name: Cmax
Hey, just the number and the unit after it is fine.

Query: Please give the documented Cmax of Cc1cccc(Cn2nc(C3CC3)c3c(NC(=O)c4cnc5cc(OCCN6CCN(C)CC6)ccn45)cccc32)n1
Response: 1240 ng/mL

----------
Test: Phase 1b plasma pharmacokinetics of ARRY-382 and metabolites
Format: in vivo, human
Conditions: human, plasma, oral, 200 mg
Endpoint name: AUC (ng·h/mL)
Enter your answer as a number in ng·h/mL; do not include the unit.

Query: Please report AUC for the following molecule: Cc1cccc(Cn2nc(C3CC3)c3c(NC(=O)c4cnc5cc(OCCN6CCN(C)CC6)ccn45)cccc32)n1 [ARRY-382]
Response: 22800

----------
Test: Phase 2 plasma pharmacokinetics of ARRY-382 and metabolites
Type: in vivo, human
Details: human, plasma, oral, 300 mg, Tmax, median (range), Cycle 1 day 1, prOVCA, n = 11
Endpoint name: Tmax
State the result as a value with its unit after it.

Query: Indicate the recorded Tmax value for this compound: Cc1cccc(Cn2nc(C3CC3)c3c(NC(=O)c4cnc5cc(OCCN6CCN(C)CC6)ccn45)cccc32)n1 [ARRY-382]
Response: 2 h
